ASSAY_TEXT: Time course tissue distribution / pharmacokinetic study in mice
Type: in vivo, female FVB mice
RUN_PARAMETERS: female, FVB, mouse, brain, po, 60 mg/kg
READOUT_LABEL: AUC(0-t) (µM·h)
Write it as a number; the unit µM·h goes unstated.

query: Output AUC(0-t) of CS(=O)(=O)CCNCc1ccc(-c2ccc3ncnc(Nc4ccc(OCc5cccc(F)c5)c(Cl)c4)c3c2)o1
result: 1.31

----------
ASSAY_TEXT: Time course tissue distribution / pharmacokinetic study in mice
Format: in vivo, female FVB mice
RUN_PARAMETERS: female, FVB, mouse, brain, po, 90 mg/kg
READOUT_LABEL: half-life
State the value with its unit after it.

query: Output half-life of CS(=O)(=O)CCNCc1ccc(-c2ccc3ncnc(Nc4ccc(OCc5cccc(F)c5)c(Cl)c4)c3c2)o1
result: 1.76 h

Each recorded value in this set is attributed to paper PMC3897212.
